assay: NOVARTIS: Cytotoxicity against human hepatocellular carcinoma cell line (Huh7); format: toxicity, cell-based, Huh-7; conditions: Huh7 cells (hepatocellular carcinoma cell line)
EXPERIMENTAL READOUT: CC50

# annotated cases, reported CC50 shown
[
  {
    "MOLECULE": "CCOC(=O)c1c(NC(=O)C(C)Sc2ncnc3c2oc2ccccc23)sc2c1CCC2 (stereo not given)",
    "OBSERVED": "> 100 µM"
  },
  {
    "MOLECULE": "O=C(c1nccs1)C1CCN(C(=O)c2cscn2)CC1",
    "OBSERVED": "> 10 µM"
  },
  {
    "MOLECULE": "CC(=O)Nc1cc(C(F)(F)F)cc(C(F)(F)F)c1",
    "OBSERVED": "> 10 µM"
  },
  {
    "MOLECULE": "COCCOC(=O)C1=C(C)NC2=C(C(=O)CC(c3ccc(OC)c(OC)c3)C2)C1c1ccc(Cl)cc1Cl (stereo not given)",
    "OBSERVED": "> 100 µM"
  }
]

Prompt: // CC50 lookup, key: Cc1ccc(C)n1-c1ccc(C(=O)N2CCC(C)CC2)cc1
Response: > 100 µM

Prompt: Moving on to CC(C)CN1CCC(O)(c2ccc3oc(C(=O)Nc4ccc5c(c4)OCO5)cc3c2)CC1
Response: 55.2 µM

Prompt: Consider next the molecule CCOC(=O)c1nnn(-c2nonc2N)c1-c1ccc(C)cc1 in the same way.
Response: > 100 µM

Prompt: # repeat for O=C(NCc1c(Cl)cccc1Sc1ccc(Cl)cc1)c1ccc2c(c1)CCO2
Response: > 10 µM

Prompt: Now the molecule c1ccc([Si]2(c3ccccc3)N[Si](c3ccccc3)(c3ccccc3)N[Si](c3ccccc3)(c3ccccc3)N2)cc1
Response: > 10 µM

Prompt: Next up: Cc1ccccc1Cc1c(C)nc2c(C#N)c(C)nn2c1C
Response: > 100 µM

* * *

assay: NOVARTIS: Cytotoxicity against human hepatocellular carcinoma cell line (Huh7); type: toxicity, cell-based, Huh-7; settings: Huh7 cells (hepatocellular carcinoma cell line)
EXPERIMENTAL READOUT: CC50

Below are worked cases with known answers.
[
  {
    "COMPOUND": "Cc1ccn2c(NC(C)(C)CC(C)(C)C)c(-c3ccccc3OC(=O)C(C)(C)CCl)nc2c1",
    "OBSERVED": "> 10 µM"
  },
  {
    "COMPOUND": "CCOC(=O)c1cnc2ccccc2c1Nc1ccc(C(C)=O)cc1",
    "OBSERVED": "> 73.8 µM"
  },
  {
    "COMPOUND": "COc1ccccc1NC(=O)N(Cc1ccccc1)C(C)c1nc2ccccc2c(=O)n1-c1cc(C)ccc1C (stereo not given)",
    "OBSERVED": "> 6.06 µM"
  },
  {
    "COMPOUND": "O=S(=O)(NCCNc1ncnc2scc(-c3ccccc3)c12)c1ccc(Cl)c(Cl)c1",
    "OBSERVED": "> 100 µM"
  }
]

Prompt: I would be grateful if you could share the reported CC50 for O=C1c2ccccc2C(=O)C12C(c1ccc(Br)cc1)N(c1ccccc1)C1(C(=O)c3ccccc3C1=O)C2c1ccc(Br)cc1 (stereo not given) .
Response: > 10 µM

Prompt: Note, next up: Cc1ccc(-c2nn(CC(=O)Nc3cccc(C)c3)c(=O)c3ccccc23)cc1
Response: > 10 µM

Prompt: Again, but for CCN1C=CC(=Cc2ccc3cc(C)ccc3[n+]2C)C=C1
Response: > 58 µM

Prompt: Try CCN(C(C)=O)C1=C(N2CCOCC2)C(=O)c2ccccc2C1=O next.
Response: 4.09 µM

Prompt: Entry COc1ccc2c(c1)CC1c3c(cc4c(c3-2)OCO4)CCN1C (stereo not given) please
Response: 15.6 µM

Prompt: Then CCOC(=O)c1ccc(NCc2c(C)[nH]c3ccccc3c2=O)cc1 ?
Response: > 100 µM

* * *

tested on: Plasmodium falciparum; assay: NOVARTIS: Inhibition of Plasmodium falciparum 3D7 (drug-susceptible) proliferation in erythrocyte-based infection assay; assay type: functional, organism-based; conditions: Plasmodium falciparum, 3D7
EXPERIMENTAL READOUT: pEC50
Units for pEC50: none; it is -log10 of a concentration expressed in mol/L.

Worked cases, pEC50 given:
[
  {
    "CHEMICAL STRUCTURE": "OCCNCCNCc1ccc2[nH]c3ccccc3c2c1",
    "TESTED ON": "Plasmodium falciparum",
    "pEC50": 6.54
  },
  {
    "CHEMICAL STRUCTURE": "O=C1C=C(Nc2cccc(C(F)(F)F)c2)C(=O)c2ccccc21",
    "TESTED ON": "Plasmodium falciparum",
    "pEC50": 6.26
  },
  {
    "CHEMICAL STRUCTURE": "Cn1nc(C(F)(F)F)c(-c2ccc(F)cc2)c1NC(=O)Nc1ccc(F)cc1",
    "TESTED ON": "Plasmodium falciparum",
    "pEC50": 6.62
  },
  {
    "CHEMICAL STRUCTURE": "COc1ccccc1-n1c(S)nnc1-c1ccccc1O",
    "TESTED ON": "Plasmodium falciparum",
    "pEC50": 6.56
  }
]

Field: next molecule
Prompt: # lookup: pEC50 of CN(C)CCNc1cc(-c2ccccc2)nc2ccccc12
Response: 6.16

* * *

Measured CC50 accompanies every entry in the list below.
assay: NOVARTIS: Cytotoxicity against human hepatocellular carcinoma cell line (Huh7); type: toxicity, cell-based, Huh-7; details: Huh7 cells (hepatocellular carcinoma cell line)
Could you give me the number in µM? Just the number is fine.

Prompt: Fill in the blank: the reported CC50 of CCn1c(N=Nc2ccc(OC)cc2)nc2ccccc21 is ____.
Response: 13

Prompt: Next record, please: O=C(Nc1c(C(=O)Nc2cccc(Cl)c2)oc2ccccc12)c1cc(-c2ccccc2O)n[nH]1
Response: 35.1

* * *

assay: NOVARTIS: Cytotoxicity against human hepatocellular carcinoma cell line (Huh7); type: toxicity, cell-based, Huh-7; details: Huh7 cells (hepatocellular carcinoma cell line)
# CC50 annotations

Example compounds with recorded CC50:
[
  {
    "COMPOUND": "COC(=O)c1c(-c2c(F)cccc2Cl)noc1/C=C/Nc1ccc(OC)cc1",
    "CC50": "> 10 µM"
  },
  {
    "COMPOUND": "COc1ccc(-c2ncc([C@@H]3C[C@H]4CN(c5ccccc5)C(=O)[C@]45CCCN35)cn2)cc1",
    "CC50": "29.8 µM"
  },
  {
    "COMPOUND": "CSC1=NC(=Nc2c(C)cccc2C)C2(CCC(C(C)(C)C)CC2)N1c1ccc(Cl)cc1 (stereo unspecified)",
    "CC50": "> 67.3 µM"
  },
  {
    "COMPOUND": "O[C@@H]1[C@H]2c3cc4c(cc3CN3CCC(=C[C@@H]1O)[C@H]23)OCO4",
    "CC50": "> 10 µM"
  },
  {
    "COMPOUND": "CCCC(=O)NC(c1cccc([N+](=O)[O-])c1)c1ccc2cccnc2c1O (stereo unspecified)",
    "CC50": "38.8 µM"
  }
]

Prompt: Returns the measured CC50 for the input compound. Input: CCOc1ccc(N(C(C)=O)C2=C(N3CCN(C)CC3)C(=O)c3ccccc3C2=O)cc1
Response: 12.9 µM

Prompt: Moving on to CCOc1ccc(Nc2cc(C)nc3c(C)cc(C)cc23)cc1
Response: 19.2 µM

* * *

tested on: Plasmodium falciparum; experiment: NOVARTIS: Inhibition of Plasmodium falciparum W2 (drug-resistant) proliferation in erythrocyte-based infection assay; assay type: functional, organism-based; details: Plasmodium falciparum, W2; read-out: EC50
EXPERIMENTAL READOUT: log10 of EC50 (log10 of the value in nM)
Could you please treat all values as log10 of EC50 in nM?

[
  {
    "MOLECULE": "O=C(C1CCC(Cn2c(=S)[nH]c3ccccc3c2=O)CC1)N1CC=C(c2ccccc2)CC1 (centres undefined)",
    "TESTED ON": "Plasmodium falciparum",
    "log10 of EC50": 3.08
  }
]

With those in mind, consider the next molecule.
Prompt: Sample CCCC(=O)O[C@]1(C(=O)CCl)[C@@H](C)CC2C3CCC4=CC(=O)C=C[C@]4(C)[C@@]3(F)C(=O)C[C@@]21C (some centres undefined) — what was its log10 of EC50?
Response: 2.45

* * *

experiment: NOVARTIS: Cytotoxicity against human hepatocellular carcinoma cell line (Huh7); assay type: toxicity, cell-based, Huh-7; details: Huh7 cells (hepatocellular carcinoma cell line)
EXPERIMENTAL READOUT: CC50

[
  {
    "COMPOUND": "CCC(c1nc2ccccc2c(=O)n1-c1ccc(Cl)cc1)N(Cc1ccccc1)C(=O)Nc1c(C(C)C)cccc1C(C)C (stereo unspecified)",
    "CC50": "> 10 µM"
  },
  {
    "COMPOUND": "C=CCSc1oc(-c2ccco2)nc1[P+](c1ccccc1)(c1ccccc1)c1ccccc1",
    "CC50": "8.42 µM"
  },
  {
    "COMPOUND": "COc1ccccc1C(=O)NN=C(C)c1cccnc1",
    "CC50": "> 10 µM"
  },
  {
    "COMPOUND": "CCOc1cccc2c1N(C(=O)c1ccc(C)cc1)C(C)(C)C1=C2C2(SC(C(=O)OC)=C(C(=O)OC)S2)C(C(=O)OC)=C(C(=O)OC)S1",
    "CC50": "> 10 µM"
  },
  {
    "COMPOUND": "Cc1ccccc1N=c1oc2ccc3ccccc3c2cc1-c1nc2ccccc2[nH]1",
    "CC50": "> 2.1 µM"
  }
]

Prompt: Name the recorded CC50 for Cc1cc(NS(=O)(=O)c2ccc(N=Cc3ccc(C#N)cc3)cc2)no1 .
Response: > 10 µM

Prompt: Repeat with CC(C)CCNCC(O)Cn1c2ccc(Cl)cc2c2cc(Cl)ccc21 (stereo unspecified)
Response: 20.6 µM

Prompt: CCOC(=O)C(=O)N1c2ccc(C)cc2C(C)(c2ccccc2)CC1(C)C (stereo unspecified) , same question.
Response: > 10 µM

Prompt: // repeat for COc1cccc(N2C(=O)/C(=C/c3cccnc3)SC2=S)c1 and report
Response: > 10 µM

Prompt: Repeat with Oc1cccc(C=Nc2ccccc2)c1O
Response: > 10.3 µM
